System: Trypanosoma brucei brucei
assay_details: WHO-TDR: Human African Trypanosomiasis (HAT)
Type: functional, organism-based
test_settings: Squib-427
We begin with a simple list: items and their reported IC50.

[
  {
    "compound": "Cc1cc2cc(CCNC(=O)C3c4ccccc4Oc4ccccc43)c(O)nc2cc1C",
    "value_modifier": ">",
    "IC50 / µg/mL": 12.7
  },
  {
    "compound": "CN(C)CCCN(C(=O)c1ccccc1F)c1nc2c(Cl)cccc2s1",
    "value_modifier": "=",
    "IC50 / µg/mL": 0.237
  },
  {
    "compound": "O=C(NCCOc1ccc(-c2ccc(F)cc2)nn1)c1cccc(C(F)(F)F)c1",
    "value_modifier": ">",
    "IC50 / µg/mL": 12.2
  },
  {
    "compound": "CCSc1nc(-c2ccccc2)c(NC(C)=O)s1",
    "value_modifier": ">",
    "IC50 / µg/mL": 8.35
  },
  {
    "compound": "CS(=O)(=O)NCC(c1ccco1)S(=O)(=O)c1ccc(Cl)cc1 (stereo not given)",
    "value_modifier": "=",
    "IC50 / µg/mL": 10.9
  },
  {
    "compound": "Cc1cc(C(=O)N(CCCN(C)C)c2nc3c(C)ccc(Cl)c3s2)no1",
    "value_modifier": "=",
    "IC50 / µg/mL": 0.378
  },
  {
    "compound": "O=C(CSC1=Nc2cccnc2Nc2ccccc21)Nc1ccc(F)c(F)c1",
    "value_modifier": ">",
    "IC50 / µg/mL": 11.9
  },
  {
    "compound": "Cc1ccc(S(=O)(=O)CC(=O)Nc2cccc(Cl)c2)cc1",
    "value_modifier": ">",
    "IC50 / µg/mL": 9.71
  },
  {
    "compound": "COc1ccc(-c2cn3c(C(=O)Nc4cc(C)ccc4C)csc3n2)cc1",
    "value_modifier": "=",
    "IC50 / µg/mL": 3.11
  },
  {
    "compound": "O=C(Nc1nnc(-c2ccco2)o1)c1cc(-c2ccccc2)nc2ccccc12",
    "value_modifier": "=",
    "IC50 / µg/mL": 3.23
  },
  {
    "compound": "COC(=O)c1c(NC(=O)c2cc3ccccc3oc2=O)sc2c1CCN(Cc1ccccc1)C2",
    "value_modifier": ">",
    "IC50 / µg/mL": 15.3
  },
  {
    "compound": "NS(=O)(=O)c1ccc2nc(NC(=O)CCSc3ccc(Cl)cc3)sc2c1",
    "value_modifier": "=",
    "IC50 / µg/mL": 4.31
  },
  {
    "compound": "C=CCn1/c(=N\\C(=O)Cc2ccc(S(C)(=O)=O)cc2)sc2c(OC)ccc(OC)c21",
    "value_modifier": "=",
    "IC50 / µg/mL": 0.462
  },
  {
    "compound": "COc1cccc(-c2cc(CC(=O)NCc3c(F)cccc3F)no2)c1",
    "value_modifier": ">",
    "IC50 / µg/mL": 10.8
  },
  {
    "compound": "CCOc1ccccc1NC(=O)Cn1c(=O)n(Cc2cccs2)c(=O)c2ncccc21",
    "value_modifier": "=",
    "IC50 / µg/mL": 4.24
  },
  {
    "compound": "COc1cccc2sc(Nc3sc4c(c3C(N)=O)CCCC4)nc12",
    "value_modifier": "=",
    "IC50 / µg/mL": 0.947
  },
  {
    "compound": "CN1CCN(C(CNC(=O)c2ccc(F)c(F)c2)c2ccc3c(c2)CCN3C)CC1 (stereo not given)",
    "value_modifier": ">",
    "IC50 / µg/mL": 12.4
  },
  {
    "compound": "COc1ccc(-c2cn3c(C(=O)Nc4ccc(F)cc4F)csc3n2)cc1",
    "value_modifier": ">",
    "IC50 / µg/mL": 11.6
  },
  {
    "compound": "O=C(CS(=O)(=O)c1ccc(F)cc1)Nc1onc2c1CCC2",
    "value_modifier": "=",
    "IC50 / µg/mL": 3.19
  },
  {
    "compound": "Cc1ccc(S(=O)(=O)N2CCCCC2CC(=O)Nc2ccc(F)c(C(F)(F)F)c2)cc1 (stereo not given)",
    "value_modifier": "=",
    "IC50 / µg/mL": 6.11
  }
]
